ASSAYED_SYSTEM: T1, recombinant human IGF-1R (rhIGF-1R) (human, UniProt P08069 31-935)
T1 construct: extracellular domain; Coated on plates in the TRF assay and europium-labelled (LANCE) in the TR-FRET assays; also called rhIGE-1R; Eu3+-rhIGF-1R
PROCEDURE_TEXT: TR-FRET competition with b-20E2 for Eu3+-rhIGF-1R
pIC50: −log10 of the molar value. No end group written: not given here.
PARAMETER: pIC50

BINDER | PARAMETER | ENDPOINT_VALUE
DYKDFYDAIDQLVRGSARAGGTRD (also called 20E2 (D118)) [20E2] | pIC50 | 6.98
GSLDESFYDWFERQLG (also called RP9 minus terminal lysines) [RP9] | pIC50 | 7.41
SAKNFYDWFVKK [A6] | pIC50 | 4.51
WLEQERAWIWCEIQGSGCRA (not fully specified (bridges); cysteine pairing not given here) [D8B12] | pIC50 | 4.95
LDALDRLMRYFEERPSL [S173] | pIC50 | 5.20
CWARPCGDAANFYDWFVQQAS (also called C1 (D112)) [C1] | pIC50 | 9.06
FHENFYDWFVQRVSKK (also called H2C (D117)) [H2C] | pIC50 | 6.34

// provenance: patent US20030236190A1
